The measured values listed here are drawn from patent US6392049B1.

The following compounds are listed with their measured IC50 values.
Target: A1 receptor (Rattus norvegicus)
Construct: using a membrane preparation of whole rat brain; from tissue; host or cells: whole rat brain membranes
Assay: A1 adenosine receptor binding, displacement of 3H-CHA, whole rat brain membranes
Settings: 3H-CHA displacement, 25° C., 60 minutes
Experimental: Non-specific binding is assessed in the presence of 1 mM theophylline. The assays are run in glass test tubes in duplicate at 25° C. Once the membranes are added, the tubes are vortexed and incubated at 25° C. for 60 minutes (A1 assay) or 90 minutes (A2 assay) on a rotary shaker. The assay tubes are vortexed halfway through the incubation and again near the end. The assays are terminated by rapid filtration through 2.4 cm GF/B filters using a Brandel Cell Harvestor. […]

compound: CCNC(=O)[C@H]1O[C@@H](n2cnc3c(NC4CC=CCC4c4cccs4)ncnc32)[C@H](O)[C@@H]1O (single isomer, unassigned) [Example 5]
prefix-operator: =
IC50 (nM): 4.26
--
compound: CCNC(=O)[C@H]1C[C@@H](n2cnc3c(NCCc4scnc4C)ncnc32)[C@H](O)[C@@H]1O (relative stereo) [Example 24]
prefix-operator: >
IC50 (nM): 1000
--
compound: CCNC(=O)[C@H]1C[C@@H](n2cnc3c(N[C@@H](C)Cc4ccc(Cl)s4)ccnc32)[C@H](O)[C@@H]1O (relative stereo) [Example 36]
prefix-operator: =
IC50 (nM): 8.8
--
compound: CO[C@@H]1[C@H](O)[C@@H](CO)O[C@H]1n1cnc2c(N[C@@H]3CC=CC[C@H]3c3cccs3)ncnc21 (relative stereo) [Example 49]
prefix-operator: =
IC50 (nM): 69
--
compound: CC(C)(Cc1cccs1)Nc1ncnc2c1ncn2[C@@H]1O[C@H](CO)[C@@H](O)[C@H]1O [Example 17]
prefix-operator: =
IC50 (nM): 67.6

---

Reported IC50 values are given for each entry in this list.
Target: A1 receptor (Rattus norvegicus, UniProt P25099)
Construct: using a membrane preparation of whole rat brain; from tissue; host or cells: whole rat brain membranes
Sequence (P25099 whole entry): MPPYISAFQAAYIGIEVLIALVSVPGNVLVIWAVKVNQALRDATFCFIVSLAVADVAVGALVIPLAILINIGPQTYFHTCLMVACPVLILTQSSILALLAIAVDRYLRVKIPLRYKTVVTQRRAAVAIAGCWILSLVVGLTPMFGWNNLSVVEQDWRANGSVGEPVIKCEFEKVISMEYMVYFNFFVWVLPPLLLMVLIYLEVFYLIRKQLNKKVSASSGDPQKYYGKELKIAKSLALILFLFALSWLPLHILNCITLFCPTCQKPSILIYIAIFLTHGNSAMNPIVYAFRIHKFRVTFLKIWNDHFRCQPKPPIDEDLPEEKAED
Experiment: A1 adenosine receptor binding, displacement of 3H-CHA, whole rat brain membranes
Conditions: 3H-CHA displacement, 25° C., 60 minutes
outcome-measure: IC50 (nM)

molecule: Cc1nc(CCNc2ncnc3c2ncn3[C@@H]2O[C@H](CO)[C@@H](O)[C@H]2O)cs1
outcome-measure: IC50
prefix-operator: =
value: 79.4
//
molecule: OC[C@H]1O[C@@H](n2cnc3c(N[C@@H]4CC=CC[C@H]4c4cccs4)ncnc32)[C@H](O)[C@@H]1O (relative stereo)
outcome-measure: IC50
prefix-operator: =
value: 1.66
//
molecule: CCNC(=O)C1CC(n2cnc3c(N[C@H](C)Cc4ccc(Cl)s4)ncnc32)C2OC(C)(C)OC12 (single isomer, unassigned; (-))
outcome-measure: IC50
prefix-operator: >
value: 1000

---

Molecular target: A2 receptor (Rattus norvegicus)
Construct: using membranes from rat brain striatum; from tissue; host or cells: rat brain striatum membranes
Assay: A2 adenosine receptor binding, displacement of 3H-CGS 21680, rat brain striatum membranes
Details: 3H-CGS 21680 displacement, rat brain striatum membranes, 25° C., 90 minutes; read-out: Adenosine Receptor Binding Activity/IC50 (nM) A2
outcome-measure: IC50 (nM)

compound: CCNC(=O)[C@H]1O[C@@H](n2cnc3c(NCCNc4nc5ccccc5s4)ncnc32)[C@H](O)[C@@H]1O
outcome-measure: IC50
prefix-operator: =
value: 891
--
compound: Cc1nc(CCNc2ncnc3c2ncn3[C@@H]2O[C@H](CO)[C@@H](O)[C@H]2O)cs1
outcome-measure: IC50
prefix-operator: >
value: 1000
--
compound: CCNC(=O)C1CC(n2cnc3c(NC(C)Cc4cccs4)ncnc32)C(O)C1O (single isomer, unassigned; (-))
outcome-measure: IC50
prefix-operator: =
value: 29.5
--
compound: CCNC(=O)C1CC(n2cnc3c(NCCc4nccs4)ncnc32)C(O)C1O (racemic)
outcome-measure: IC50
prefix-operator: =
value: 355
--
compound: Cc1ncsc1CCNc1ncnc2c1ncn2[C@@H]1O[C@H](CO)[C@@H](O)[C@H]1O
outcome-measure: IC50
prefix-operator: =
value: 224
--
compound: CCNC(=O)[C@H]1O[C@@H](n2cnc3c(NC4CC=CCC4c4cccs4)ncnc32)[C@H](O)[C@@H]1O (single isomer, unassigned) [Example 22]
outcome-measure: IC50
prefix-operator: =
value: 29.5
--
compound: CC(C)(Cc1cccs1)Nc1ncnc2c1ncn2[C@@H]1O[C@H](CO)[C@@H](O)[C@H]1O
outcome-measure: IC50
prefix-operator: =
value: 5250
--
compound: CC(Cc1nccs1)Nc1ncnc2c1ncn2[C@@H]1O[C@H](CO)[C@@H](O)[C@H]1O (some centres unmarked)
outcome-measure: IC50
prefix-operator: =
value: 158
--
compound: CCNC(=O)C1CC(n2cnc3c(NCCc4ccsc4)ncnc32)C(O)C1O (racemic)
outcome-measure: IC50
prefix-operator: >
value: 1000
--
compound: CCNC(=O)[C@H]1C[C@@H](n2cnc3c(NCCc4scnc4C)ncnc32)[C@H](O)[C@@H]1O (relative stereo)
outcome-measure: IC50
prefix-operator: >
value: 1000
--
compound: OC[C@H]1O[C@@H](n2cnc3c(NCCc4nc(-c5ccccc5)cs4)ncnc32)[C@H](O)[C@@H]1O
outcome-measure: IC50
prefix-operator: >
value: 1000
--
compound: CCNC(=O)C1CC(n2cnc3c(N[C@H](CC)Cc4sccc4Cl)ncnc32)C(O)C1O (single isomer, unassigned; (-))
outcome-measure: IC50
prefix-operator: =
value: 23
--
compound: OC[C@H]1O[C@@H](n2cnc3c(N[C@@H]4CC=CC[C@H]4c4cccs4)ncnc32)[C@H](O)[C@@H]1O (relative stereo)
outcome-measure: IC50
prefix-operator: =
value: 55
--
compound: OC[C@H]1O[C@@H](n2cnc3c(NCCNc4nc5ccccc5s4)ncnc32)[C@H](O)[C@@H]1O
outcome-measure: IC50
prefix-operator: =
value: 1000

---

Target: A1 receptor (Rattus norvegicus)
Construct: using a membrane preparation of whole rat brain; from tissue; host or cells: whole rat brain membranes
Test: A1 adenosine receptor binding, displacement of 3H-CHA, whole rat brain membranes
Conditions: 3H-CHA displacement, 25° C., 60 minutes
IC50 for assorted compounds

compound: CCNC(=O)C1CC(n2cnc3c(N[C@H](C)Cc4ccc(Cl)s4)ncnc32)C(O)C1O (single isomer, unassigned; (-))
IC50, nM: 2.69
--
compound: OC[C@H]1O[C@@H](n2cnc3c(N[C@@H]4CCCC[C@H]4c4cccs4)ncnc32)[C@H](O)[C@@H]1O (relative stereo)
IC50, nM: 3.5
--
compound: CO[C@@H]1[C@H](O)[C@@H](CO)O[C@H]1n1cnc2c(N[C@H](C)Cc3sccc3Cl)ncnc21
IC50, nM: 23
--
compound: CO[C@@H]1[C@H](O)[C@@H](CO)O[C@H]1n1cnc2c(N[C@H](C)Cc3ccc(Cl)s3)ncnc21
IC50, nM: 8.35
--
compound: OC[C@H]1O[C@@H](n2cnc3c(N[C@@H]4CC=CC[C@H]4c4ccsc4)ncnc32)[C@H](O)[C@@H]1O (relative stereo)
IC50, nM: 5
--
compound: CCNC(=O)C1CC(n2cnc3c(NCCc4cccs4)ncnc32)C(O)C1O (single isomer, unassigned; (-))
IC50, nM: 87.1

---

# Lookup of reported IC50 keyed by entry
Target: A2 receptor (Rattus norvegicus, UniProt P30543)
Construct: using membranes from rat brain striatum; from tissue; host or cells: rat brain striatum membranes
Sequence (P30543 whole entry): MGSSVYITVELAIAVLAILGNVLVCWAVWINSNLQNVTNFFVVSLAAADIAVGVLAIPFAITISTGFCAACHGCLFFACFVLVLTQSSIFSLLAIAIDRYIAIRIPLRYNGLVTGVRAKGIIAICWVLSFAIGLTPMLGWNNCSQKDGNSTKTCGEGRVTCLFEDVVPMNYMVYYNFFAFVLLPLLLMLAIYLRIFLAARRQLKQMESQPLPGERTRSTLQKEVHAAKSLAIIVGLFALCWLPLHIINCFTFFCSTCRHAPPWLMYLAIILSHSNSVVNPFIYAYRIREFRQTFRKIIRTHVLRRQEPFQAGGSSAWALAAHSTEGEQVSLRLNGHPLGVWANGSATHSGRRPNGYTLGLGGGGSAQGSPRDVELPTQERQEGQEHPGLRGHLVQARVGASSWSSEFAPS
Experiment: A2 adenosine receptor binding, displacement of 3H-CGS 21680, rat brain striatum membranes
Conditions: 3H-CGS 21680 displacement, rat brain striatum membranes, 25° C., 90 minutes; read-out: Adenosine Receptor Binding Activity/IC50 (nM) A2

compound: CCNC(=O)[C@H]1C[C@@H](n2cnc3c(N[C@H](C)Cc4ccc(Cl)s4)ncnc32)[C@@H]2OC(OCC)O[C@@H]21 (some centres unmarked) [Example 43]
prefix-operator: >
IC50 (nM): 10000

compound: OC[C@H]1O[C@@H](n2cnc3c(NCCc4nccs4)ncnc32)[C@H](O)[C@@H]1O [Example 13, N^6-[2-(2′-thiazolyl)ethyl]-adenosine]
prefix-operator: =
IC50 (nM): 191

compound: CCNC(=O)[C@H]1C[C@@H](n2cnc3c(N[C@@H](C)Cc4ccc(Cl)s4)ccnc32)[C@H](O)[C@@H]1O (relative stereo) [Example 36]
prefix-operator: =
IC50 (nM): 43.4

compound: CCNC(=O)[C@H]1C[C@@H](n2cnc3c(N[C@H](C)Cc4ccc(Cl)s4)ncnc32)[C@H](OC(=O)NC)[C@@H]1OC(=O)NC [Example 45]
prefix-operator: >
IC50 (nM): 10000

compound: CCC(Cc1ccc(Cl)s1)Nc1ncnc2c1ncn2[C@@H]1O[C@H](CO)[C@@H](O)[C@H]1O (some centres unmarked) [Example 21]
prefix-operator: =
IC50 (nM): 14.8

compound: CCNC(=O)[C@H]1C[C@@H](n2cnc3c(NCCc4cccs4)ccnc32)[C@H](O)[C@@H]1O (racemic) [Example 30]
prefix-operator: >
IC50 (nM): 1000

compound: CCNC(=O)C1CC(n2cnc3c(N[C@H](C)Cc4ccc(Cl)s4)ncnc32)C(O)C1O (single isomer, unassigned; (-)) [Example 6]
prefix-operator: =
IC50 (nM): 12.9

compound: CCNC(=O)[C@H]1C[C@@H](n2cnc3c(N[C@H](C)Cc4ccc(Cl)s4)ncnc32)[C@@H]2OC(=S)O[C@@H]21 [Example 46]
prefix-operator: =
IC50 (nM): 81

compound: CCNC(=O)[C@H]1C[C@@H](n2cnc3c(N[C@H](C)Cc4cccs4)ccnc32)[C@H](O)[C@@H]1O [Example 40]
prefix-operator: =
IC50 (nM): 68.8

compound: CCNC(=O)[C@H]1C[C@@H](n2cnc3c(N[C@H](C)Cc4ccc(Cl)s4)ncnc32)[C@H](OC(=O)OC)[C@@H]1OC(=O)OC [Example 42]
prefix-operator: >
IC50 (nM): 10000

compound: CCNC(=O)[C@H]1O[C@@H](n2cnc3c(NC4CC=CCC4c4cccs4)ncnc32)[C@H](O)[C@@H]1O (single isomer, unassigned) [Example 5]
prefix-operator: =
IC50 (nM): 91

compound: CCNC(=O)[C@H]1C[C@@H](n2cnc3c(N[C@H](C)Cc4ccc(Cl)s4)[n+]([O-])cnc32)[C@H](O)[C@@H]1O [Example 35]
prefix-operator: =
IC50 (nM): 6350

compound: Cc1csc(CNc2ncnc3c2ncn3[C@@H]2O[C@H](CO)[C@@H](O)[C@H]2O)n1 [Example 18]
prefix-operator: =
IC50 (nM): 52

compound: OC[C@H]1O[C@@H](n2cnc3c(N[C@@H]4CCCC[C@H]4c4cccs4)ncnc32)[C@H](O)[C@@H]1O (relative stereo) [Example 7]
prefix-operator: =
IC50 (nM): 28
